Molecular target: T1, HIS-tagged human NKG2D (human, UniProt P26718 73-216, limits assumed)
T1 construct: Captured on HIS1K biosensors; not shown: HIS tag
T1 sequence (looked up): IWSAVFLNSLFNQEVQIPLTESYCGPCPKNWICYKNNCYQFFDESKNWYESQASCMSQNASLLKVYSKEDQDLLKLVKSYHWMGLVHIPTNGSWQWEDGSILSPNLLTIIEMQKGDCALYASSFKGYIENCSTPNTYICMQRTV
Assay: Octet (BLI): His-tagged human NKG2D captured on HIS1K biosensors, dipped into 100 nM bivalent mAb
Endpoint Name: pKd
Please treat pKd as minus the base-10 logarithm of the molar concentration.

The following binders have reported results that may help.
{"columns": ["Binder", "Data Value"],
 "data": [
  ["XENP27608 (antibody, human IgG1, kappa, V domains shown, humanized bivalent anti-NKG2D mAb, IgG1 with ablation variants; also called mAb C[NKG2D]_H1L2_IgG1_PVA_/S267K) VH: EVQLVESGGGLVQPGGSLRLSCAVSGFSLTIYGVHWVRQAPGKGLEWVSVIWSGGSTDYNAKVKGRFTISKDNSKRTVYLQMNSLRAEDTAVYYCSRKSHDGYYGVMDYWGQGTTVTVSS VL: DIQLTQSPSSLSASVGDRVTITCRASQSIGTSIHWYQQKPGKSPKLLIKYASESISGIPSRFSGSGSGTDFTLTISSLQPEDFATYYCQQSNTWPLTFGAGTKVEIKR", 9.43],
  ["XENP27602 (antibody, human IgG1, kappa, V domains shown, humanized bivalent anti-NKG2D mAb, IgG1 with ablation variants; also called mAb B[NKG2D]_H2_L1.1_IgG1_PVA_/S267K) VH: EVQLVQSGAEVKKPGESLRISCKASGYTFTSYWMNWVRQMPGKGLEWMGRIDPYDSETHYNPSFQGHVTISVDKSISTAYLQWSSLKASDTAMYYCAKMGDYSFDYWGQGTLVTVSS VL: DIQLTQSPSSLSASVGDRVTITCRASGNIHNYLAWYQQKPGKSPKVLVYNAKTLADGVPSRFSGSGSGTDYTLTISSLQPEDFATYYCQHFWSTPWTFGGGTKVEIKR", 8.71]
]}

# input for lookup
Q: What value of measured pKd is listed for XENP27609 (antibody, human IgG1, kappa, V domains shown, humanized bivalent anti-NKG2D mAb, IgG1 with ablation variants; also called mAb C[NKG2D]_H2L1_IgG1_PVA_/S267K) VH: QVQLVQSGAEVKKPGASVKVSCKVSGFSLTIYGVHWVRQAPGQGLEWMGVIWSGGSTDYNAKFQGRVTMTKDNSKRTVYMELSSLRSEDTAVYYCSRKSHDGYYGVMDYWGQGTTVTVSS VL: DIQLTQSPDFQSVTPKEKVTITCRASQSIGTSIHWYQQKPDQSPKLLIKYASESISGIPSRFSGSGSGTDFTLTINSLEAEDAATYYCQQSNTWPLTFGAGTKVEIKR ?
A: 9.78

The origin of these recorded values is patent US12448423.
